These data points were gathered from paper PMC10269664.

- assay-target: AgrA (Listeria monocytogenes, UniProt Q8YAR4, G176A)
- assay: biochemical
measured-endpoint: Kd (µM)
Note: unit µM is implicit; provide only the numeric part.

Test item `O=CC=Cc1ccccc1` ; AgrA (Listeria monocytogenes, UniProt Q8YAR4, G176A); reported Kd was 53.2

---

- assay-target: AgrA (Listeria monocytogenes, UniProt Q8YAR4)
- Sequence (Q8YAR4 entry or part of it): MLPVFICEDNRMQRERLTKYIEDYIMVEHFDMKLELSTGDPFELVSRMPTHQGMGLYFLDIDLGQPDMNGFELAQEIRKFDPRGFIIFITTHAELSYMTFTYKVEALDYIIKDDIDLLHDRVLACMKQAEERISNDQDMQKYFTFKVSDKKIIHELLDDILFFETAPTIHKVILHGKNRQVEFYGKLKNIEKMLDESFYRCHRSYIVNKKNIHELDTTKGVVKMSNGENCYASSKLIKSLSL
measured-endpoint: pKd
pKd here is simply -log10 of the concentration when that concentration is written in mol/L.

Per the record, O=CC=Cc1ccccc1 [cinnamaldehyde] has pKd of 4.25

---

- assay-target: AgrA (Listeria monocytogenes, UniProt Q8YAR4, N178A)
- assay: biochemical
measured-endpoint: pKd
pKd here is simply -log10 of the concentration when that concentration is written in mol/L.

Per the record, `O=CC=Cc1ccccc1` has pKd of 3.86
